target: glucose-6-phosphate dehydrogenase-6-phosphogluconolactonase (PfGluPho), Plasmodium falciparum 3D7; test: PfG6PD enzyme inhibitors, SAR follow-up, biochemical, fluorescence intensity (AID 588415); conditions: recombinant PfG6PD, resazurin-diaphorase NADPH fluorescence
Calls of active or inactive are those of the source.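 Rule for the calls: active = IC50 at or below 20 µM; inactive = the rest.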
# valid calls are t (active), f (inactive); nothing else

Record lookup: outcome of this test for Cc1cccc(N2CCN(CCNC(=O)c3ccc4c(c3)NC(=O)c3ccccc3S4)CC2)c1C ?
f

Record lookup: outcome of this test for CCCN(CCC)CCNC(=O)c1ccc2c(c1)NC(=O)/C(=C\c1ccc(C)cc1)S2 ?
f

Record lookup: outcome of this test for O=C(Nc1nnc(S(=O)(=O)N2CCCCCC2)s1)c1cccc(F)c1 ?
f

Record lookup: outcome of this test for COc1ccc(C(=O)Nc2nnc(S(=O)(=O)N3CCCCCC3)s2)cc1 ?
f

Record lookup: outcome of this test for CCN(CC)CCNC(=O)c1ccc2c(c1)N(Cc1ccc(C)cc1)C(=O)c1ccccc1S2 ?
f

Record lookup: outcome of this test for CCN(CC)CCNC(=O)c1ccc2c(c1)N(Cc1ccccc1Cl)C(=O)c1ccccc1S2 ?
f

Record lookup: outcome of this test for O=C(Nc1nnc(S(=O)(=O)N2CCCCC2)s1)c1cccc(F)c1 ?
f

Record lookup: outcome of this test for Cc1cccc(C(=O)Nc2nnc(S(=O)(=O)N3CCOCC3)s2)c1 ?
t

Record lookup: outcome of this test for COc1cccc(/C=C2/Sc3ccc(C(=O)NCCN4CCCCCC4)cc3NC2=O)c1 ?
f

Record lookup: outcome of this test for Cc1cccc(/C=C2/Sc3ccc(C(=O)NCCN4CCCC4)cc3NC2=O)c1 ?
t

Record lookup: outcome of this test for CN(CCNC(=O)c1ccc2c(c1)NC(=O)c1ccccc1S2)C1CCCCC1 ?
f

Record lookup: outcome of this test for CCN(CC)CCNC(=O)c1ccc2c(c1)NC(=O)/C(=C\c1ccc(OC)c(OC)c1)S2 ?
f

Record lookup: outcome of this test for CCN(CC)CCNC(=O)c1ccc2c(c1)NC(=O)c1ccccc1S2 ?
f

Record lookup: outcome of this test for CCN1CCCC1CNC(=O)c1ccc2c(c1)N(Cc1cccc(F)c1)C(=O)c1ccccc1S2 (stereo not drawn) ?
f

Record lookup: outcome of this test for CCN1CCCC1CNC(=O)c1ccc2c(c1)NC(=O)/C(=C\c1ccccc1Cl)S2 (stereo not drawn) ?
t

Record lookup: outcome of this test for CCN1CCCC1CNC(=O)c1ccc2c(c1)N(Cc1ccccc1F)C(=O)c1ccccc1S2 (stereo not drawn) ?
f

Record lookup: outcome of this test for O=C(Nc1nnc(S(=O)(=O)N2CCCCCC2)s1)c1ccco1 ?
f

Record lookup: outcome of this test for COc1ccccc1C(=O)Nc1nnc(S(=O)(=O)N2CCCCCC2)s1 ?
f

Record lookup: outcome of this test for Cc1cccc(C(=O)Nc2nnc(S(=O)(=O)N3CCCCCC3)s2)c1 ?
t

Record lookup: outcome of this test for COc1ccc(/C=C2/Sc3ccc(C(=O)NCCN4CCCC4)cc3NC2=O)cc1 ?
f

Record lookup: outcome of this test for Cc1ccc(C(=O)Nc2nnc(S(=O)(=O)N3CCCc4ccccc43)s2)cc1 ?
f

Record lookup: outcome of this test for COc1cccc(/C=C2/Sc3ccc(C(=O)NCCN4CCCC4)cc3NC2=O)c1 ?
f

Record lookup: outcome of this test for O=C(Nc1nnc(S(=O)(=O)N2CCCCCC2)s1)c1ccccc1 ?
f

Ref: PubChem BioAssay AID588415
